Each recorded value in this set is attributed to PubChem BioAssay (NCI).

tested on: LXFL 529 NSCLC; assay: NCI tumour cell line growth inhibition, 48 h
measurement_type: TGI

Before answering, review these 4 worked examples.
compound: COc1cc2c(cc1O)C(C)Cc1cc3c(cc1N(C)CC2)OCO3 (stereo not given)
value_observed: > 95.6 µM

compound: ClC[Si]12OCCN(CCO1)CCO2
value_observed: > 100 µM

compound: CC1=C(C(=O)Nc2ccccc2C)C(c2ccc(C3C(C(=O)Nc4ccccc4C)=CNC=C3C(=O)Nc3ccccc3C)cc2)C(C(=O)Nc2ccccc2C)=C(C)N1
value_observed: 26.6 µM

compound: O=C(c1ccccc1)c1c(CNCc2ccccc2)n(C(=O)c2ccccc2)c2ccccc12
value_observed: > 100 µM

Exercise: Find the measured TGI: item O=C(c1ccc2c3c(ccc(C(=O)C(F)(F)F)c13)CC2)C(F)(F)F , target or system LXFL 529 NSCLC.
Solution: > 100 µM

###

test system: IGROV1 ovarian; assay: NCI tumour cell line growth inhibition, 48 h
measurement_type: TGI

molecule: Nc1c(C(=O)Nc2ccccc2)sc2nc3c(cc12)CCCC3
TGI: > 100 µM

Exercise: Look up TGI: COc1cc(C=O)c(-c2cc3c(cc2C=O)OCO3)c(OC)c1OC
Solution: > 290 µM

Exercise: Fill blank: measured TGI of the molecule COc1cc(/C=C(\C#N)c2ccccn2)cc(Br)c1O is ____.
Solution: > 100 µM

Exercise: Can you look up the measured TGI of Cc1cccc(NC(=S)N/N=C(/c2ccccc2)c2ccccn2)c1 for me?
Solution: 16.7 µM

Exercise: Item CCCCCCCCCC(CCCC(O)CC(=O)O)OC1OC(COC2OC(C)C(O)C(O)C2O)C(O)C(O)C1OC1OC(CO)C(O)C(O)C1OC1OC(C)C(O)C(O)C1O (stereo not drawn) has what recorded TGI?
Solution: > 40 µM

Exercise: What value of measured TGI is listed for Cc1ccc(NC(=O)c2nc(S(C)=O)oc2-c2ccc(F)cc2)cc1Nc1nccc(-c2cccnc2)n1 (stereo not drawn) ?
Solution: 3.85 µM

Exercise: Fill blank: measured TGI of the molecule O=C1C[C@H]2[C@H](c3ccc(Br)cc3)[C@H]3C(=O)c4ccccc4NC(=O)[C@@H]3[C@@]2(O)c2ccccc2N1 is ____.
Solution: 33.4 µM

Exercise: Record request: TGI value, item CC(=O)O[C@H]1[C@@H](N2CCN(C)CC2)C[C@H]2[C@@H]3CC=C4C[C@@H](N5CCCC5)CC[C@]4(C)[C@H]3CC[C@@]21C
Solution: > 100 µM

###

test system: NCI-H226 lung; experiment: NCI tumour cell line growth inhibition, 48 h
Recorded TGI values for a group of compounds are listed next.

These recorded examples may help you get a feel for the data.
compound: COc1cc(C2C(C#N)=C(N)Oc3cc(O)ccc32)cc(OC)c1OC (stereo not given)
value_observed: > 100 µM
//
compound: O=c1/c(=C/c2ccc3c(c2)OCO3)sc2nnc(-c3ccco3)n12
value_observed: > 100 µM
//
compound: N/N=C(\C(=O)Nc1ccc([N+](=O)[O-])cc1)C(C1=Nc2cc([N+](=O)[O-])ccc2NC1)[N+](=O)[O-] (stereo not given)
value_observed: > 100 µM
//
compound: COc1cc(-c2cc(CCC(=O)Nc3ccccc3[N+](=O)[O-])n(-c3ccc([N+](=O)[O-])cc3[N+](=O)[O-])n2)ccc1O
value_observed: > 100 µM
//
compound: CCOC(=O)c1cc(-c2ccc(Cl)cc2)c([N+](=O)[O-])n1C
value_observed: > 10 µM
//
compound: ClC[Si]12OCCN(CCO1)CCO2
value_observed: > 100 µM
//
compound: CC(=O)OC1COC(Nn2c(=O)[nH]c3ccccc3c2=O)C(OC(C)=O)C1OC(C)=O (stereo not given)
value_observed: > 100 µM
//
compound: CCCCOC(=O)C1CN2C(=NC1(C(F)(F)F)C(F)(F)F)Sc1ccccc12 (stereo not given)
value_observed: > 100 µM
//
compound: Nc1c(C(=O)Nc2ccccc2)sc2nc3c(cc12)CCCC3
value_observed: > 100 µM
//
compound: C[C@@H]1OC(=O)/C(=C\N(C)C)[C@H]2CC(=O)N(CCc3cn(S(=O)(=O)C(F)(F)F)c4ccccc34)C[C@H]12
value_observed: > 100 µM

Exercise: Please tell me: TGI of O=C1OC(c2ccccc2)N/C1=C\c1ccc2c(c1)OCO2 (stereo not given) , system NCI-H226 lung?
Solution: > 100 µM

Exercise: Please state recorded TGI (tested on NCI-H226 lung) of O=c1cccc(C#CC#C/C=C/CO)o1
Solution: 7.68 µM

Exercise: Form field - read-out: TGI; system: NCI-H226 lung; submitted item: N#Cc1c2nc3ccccc3nc2n2ccc3ccccc3c12
Solution: > 100 µM

Exercise: Find the measured TGI: item CC1OC(OC2CC(O)(C(=O)CO)Cc3c(O)c4c(c(O)c32)C(=O)c2ccccc2C4=O)CC(N)C1O (stereo not given) , target or system NCI-H226 lung.
Solution: < 0.0228 µM

Exercise: Find TGI (NCI-H226 lung) for the entry CP(C)(=S)P(C)(C)=S
Solution: > 100 µM

Exercise: // map Cc1n[nH]c(=O)n1N1C(=O)c2ccccc2C1=O to recorded TGI (system: NCI-H226 lung)
Solution: > 100 µM

Exercise: # returns recorded TGI (system: NCI-H226 lung) for O=C(O)CNS(=O)(=O)c1ccc(NC(=O)Nc2ccccc2)cc1
Solution: > 100 µM

Exercise: Under NCI-H226 lung: TGI value of CCN(CC)c1nc(N(C)C)c2cc(OC)ccc2n1 ?
Solution: 60.1 µM
